experiment: Solubility of nomegestrol acetate in solvent mixtures; format: physicochemical; details: ethanol/water/propyleneglycol ternary mixture, aqueous with cosolvent or surfactant or cyclodextrin, System II (Ethanol 95° 40%/Demineralized water 60%), 8% propyleneglycol; read-out: Solubilities
Recorded Endpoint: solubility (µg/mL)
Unit µg/mL implied. Number only.

Write down solubility measured for item CC(=O)O[C@]1(C(C)=O)CC[C@H]2[C@@H]3C=C(C)C4=CC(=O)CC[C@@H]4[C@H]3CC[C@@]21C [nomegestrol acetate] 3200

----------
assay: Solubility of nomegestrol acetate in solvent mixtures; format: physicochemical; settings: ethanol/water/propyleneglycol ternary mixture, aqueous with cosolvent or surfactant or cyclodextrin, System I (Ethanol 95° 30%/Demineralized water 70%), 6% propyleneglycol; read-out: Solubilities
Recorded Endpoint: solubility (µg/mL)
Unit µg/mL implied. Number only.

Write down solubility measured for item CC(=O)O[C@]1(C(C)=O)CC[C@H]2[C@@H]3C=C(C)C4=CC(=O)CC[C@@H]4[C@H]3CC[C@@]21C [nomegestrol acetate] 700
